B1: TPR t1 (parent)
chain: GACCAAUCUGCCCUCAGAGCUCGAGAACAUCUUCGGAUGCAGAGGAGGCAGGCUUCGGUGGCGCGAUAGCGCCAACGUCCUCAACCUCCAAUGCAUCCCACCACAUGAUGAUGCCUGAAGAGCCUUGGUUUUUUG

Variants of: B1
Experiment: polymerase ribozyme fitness, log enrichment relative to wild type (log ratio); higher = more active; in vitro selection for triplet polymerase activity
Parameter class (string): assigned from measured polymerase ribozyme fitness (log ratio). Ranges: bucket A: < -4; bucket B: ≥ -4 and < -1; bucket C: ≥ -1

Q: // bin(item) where item = A66C A105U A108G C124A
Result: bucket A

Q: // bin(item) where item = G48U C62U A84C C115A
Result: bucket B

Q: // bin(item) where item = U7G G61U C70G
Result: bucket A

Q: // bin(item) where item = C8G G35C
Result: bucket A

Q: // bin(item) where item = G93A A95C A121U
Result: bucket C

Q: // bin(item) where item = C12A C97A
Result: bucket A

Q: // bin(item) where item = C62A C72G
Result: bucket B

Q: // bin(item) where item = U7G C28U G48A G61A
Result: bucket B

Q: // bin(item) where item = G93C G120C
Result: bucket B

Q: // bin(item) where item = G44A C49U U106G
Result: bucket A

Q: // bin(item) where item = G61A C97A
Result: bucket B

Q: // bin(item) where item = A2U U38A G63A C88U
Result: bucket A

Q: // bin(item) where item = G42C A111G A121C
Result: bucket B

Q: // bin(item) where item = A5U G51A
Result: bucket B

Q: // bin(item) where item = U7C C13U C15A G45A C72A
Result: bucket C

Q: // bin(item) where item = A5C C123G
Result: bucket C

Q: // bin(item) where item = G57A C73G U87G U125A
Result: bucket B

Q: // bin(item) where item = A29U G44A U59A A103C U112C
Result: bucket A

Q: // bin(item) where item = U9G C12G U33A G42A C72G G93A G110U U116A
Result: bucket A

Q: // bin(item) where item = C22A C70U G77C
Result: bucket A

Q: // bin(item) where item = G45A C49A C94U G110A C124G
Result: bucket B

Q: // bin(item) where item = U38G G69C U112C
Result: bucket B

Q: // bin(item) where item = G61A U116G A121U
Result: bucket C

Q: // bin(item) where item = G36C C70U
Result: bucket B

Q: // bin(item) where item = G52C A119G C124U
Result: bucket C

Q: // bin(item) where item = C15A A46C A84C A91U
Result: bucket A

Q: // bin(item) where item = C88G U130G
Result: bucket C

Q: // bin(item) where item = U21C C22A G69C
Result: bucket A

Q: // bin(item) where item = C11U C76U
Result: bucket C

Q: // bin(item) where item = A6G G45C
Result: bucket B

Q: // bin(item) where item = C11U U21C G120U
Result: bucket C

Q: // bin(item) where item = C73G C102A
Result: bucket B
